protocol: yeast display, Sf9 membrane polyspecificity reagent, FACS + sequencing; frameworks hold sequencing errors
quantity-measured: polyreactivity (PSR sort gate)

sequence-code | quantity-measured | measured-result
QVQLVESGGGLVQAGGSLRLSCAASGSIFYQNAMGWYRQAPGKESELVAAISWRGDSTSYADSVKGRFTISRDNAKNTVYLQMNSLKPEDPAVYYCATAHDYAFYRYWYVPSEYNYWGQGTLVTVSS | polyreactivity (PSR sort gate) | low polyreactivity
QVQLVESGGGLVQAGGSLRLSCASSGSIFNYNSMGGYRQAPGKERELVAGITTSGGSTYYADSVKGRFTISRDNAKNTVYLQMNSLKPEDTAVYYCAGYDYISSTYFLDDFWGQGSQVTVSS | polyreactivity (PSR sort gate) | low polyreactivity
QVQLVESGGGLVQAGGSLRLSCAASGRIFGYYAIGWYRQAPGKERELVAAITINGGRTYYADSVKGRFTISRDNAKNTVYLQMNSLKPEDTAVYYCTATSRYNRLGYWGQGTQVTVSS | polyreactivity (PSR sort gate) | high polyreactivity
QVQLVESGGGLVQAGGSLRLSSAASGRTIAYYTKGWYRQAPGKVRELVAAITWTGGRTYYPDSVKGRFTISRDIAKNTVYLQMNSLQPEDTAVYYCATQHRAGAYYLYTPYDYWGQGTQVTVSS | polyreactivity (PSR sort gate) | high polyreactivity
QVQLVESGGGLVQAGGSLRLSCAASGSTFPVNAMGWYRQAPGKERELVAAISSRGSSTYYADSVKGRFTISRDNAKNTVYLQMNSLKPEDTAVYYCAAPQRYPRFYYWGQGTQVTVSS | polyreactivity (PSR sort gate) | high polyreactivity
QVQLVESGGGLVQAGRSLRLSCAASGSIFRIYAMGWYGQAPGKERELVAAITWSGGGTYYADSVKGRFTNSRDNAKNTVYLQMYSLKPEDTAVYYCAADYWGYDIYYGLSERESWGQGTQVTVSS | polyreactivity (PSR sort gate) | high polyreactivity
QVQLVESGGGLVQAGGSLPLTCAASGRILRAYAMGWYRQAPGNEMELVAAISFSGGSTYYADSVKGRFTISRDYAKNYVYLQINSLKPEDTAVYYCNALYTSYYRPSCMGYWGQGTQVTVSS | polyreactivity (PSR sort gate) | high polyreactivity
QVQLVESGGGLVQAGGSLRLSCAASGSTFVAYPMGWYRQAPGKERELVATISSGGNTKYADSVKGRFTISRDNAKNTVYLQMNSVKPEDTAVYYCNAGRYRYRYRSYPYDYWGQGTQVTVSS | polyreactivity (PSR sort gate) | high polyreactivity
QVQLVESGGGLVQAGGSLRLSCAASGSIFYYYAMGWYRQAPGKERELVAAISTSSGRTYYADSVKGRFTISRDNAKNTVYLQMNSLKPEDTAVYYCATRYRRDGGSWGQGTQVTVSS | polyreactivity (PSR sort gate) | high polyreactivity
QVPLVESGGGLLQAGGSLRISCAASGSIFTRNAMGWYRPAPGKERELVAAISRRGVSTYYADSVKGRFTISRDNAKNTVYLQMNSLKPEDTAVYYCTARSPMYRTTYDYWGQGTQVTVSS | polyreactivity (PSR sort gate) | high polyreactivity
QVQLVVSGGGLVQAGGSLRLSCAASGSIFTRYAMGWYRQAPGKERELVAAISSGGSTYYADSVKGRFTISRDNAKNTVYLQMNSLKPEDTAVYYCAKDSGSYRVGIYEPFPYGYWGQGTQVTVSS | polyreactivity (PSR sort gate) | low polyreactivity
QVHLVESGGGLVQAGGSLRLSCAASGSTFYYYAMGWYRQAPGKERELVAVITSGGSTNYADSVKGRFTISRDYAKNSVYLQMNSLKPEDTAVYYCNVGPSTYYQYDYWGQGTQVTVSS | polyreactivity (PSR sort gate) | high polyreactivity
QVQLVESGGGLVQAGGSLRLSCAASGFTFYYYAMGWYRQAPGKERELVAAITWSGDSTNYADSVKGRFTISRDNAKNTVYLQMNSLKPEDTAVYYCATESYDSYGLYDYWGQGTQVTVSS | polyreactivity (PSR sort gate) | low polyreactivity
